Would you kindly list activation at 1 µM for each of these molecules?
# tgt: adrenergic α1A receptor (Homo sapiens)
# Sequence (P35348 whole entry): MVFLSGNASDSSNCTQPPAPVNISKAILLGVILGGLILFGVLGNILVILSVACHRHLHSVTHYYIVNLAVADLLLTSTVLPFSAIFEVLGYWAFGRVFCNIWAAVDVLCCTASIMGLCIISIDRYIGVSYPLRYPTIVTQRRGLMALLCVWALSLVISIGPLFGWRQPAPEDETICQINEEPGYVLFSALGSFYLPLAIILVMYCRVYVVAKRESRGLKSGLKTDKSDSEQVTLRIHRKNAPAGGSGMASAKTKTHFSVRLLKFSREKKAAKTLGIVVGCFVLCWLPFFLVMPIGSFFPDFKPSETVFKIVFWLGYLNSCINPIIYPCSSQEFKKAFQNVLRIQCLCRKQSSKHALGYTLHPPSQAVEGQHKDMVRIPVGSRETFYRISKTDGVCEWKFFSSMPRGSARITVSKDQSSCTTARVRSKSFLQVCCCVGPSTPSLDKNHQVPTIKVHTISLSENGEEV
# method-summary: Cellular functional assay, adrenergic α1A receptor (agonism/antagonism)
# Type: cell-based
# experimental-context: agonist effect, percent of control specific agonist response; compounds tested at 1×10^−6M; read-out: α1A -ag [%]
# Protocol: […]. The compounds were tested at the concentration of 1×10^−6M. […]
One number for each entry, in %.

Example entries and their recorded answers appear below.
>>> observed_value("Cc1cccc(S(=O)(=O)NCCCN2CCN(c3nsc4ccccc34)CC2)c1 [Compound 7]")
0
>>> observed_value("O=S(=O)(NCCCCN1CCN(c2nsc3ccccc23)CC1)c1csc2ccccc12 [Compound 240]")
0

Please give activation at 1 µM for each item listed below.
1. O=S(=O)(NCCCCN1CCN(c2cccc3[nH]ccc23)CC1)c1cccc(Cl)c1 [Compound 113]
2. Cc1c(S(=O)(=O)NCCCCN2CCN(c3nsc4ccccc34)CC2)sc2ccc(F)cc12 [Compound 65]
3. O=S(=O)(NCCCCN1CCN(c2noc3ccccc23)CC1)c1cccc2ccccc12 [Compound 13]
4. O=S(=O)(NCCCCN1CCC(c2noc3cc(F)ccc23)CC1)c1ccc2ccccc2c1 [Compound 18]

1. 1
2. 0
3. 0
4. 0

Param readout = activation at 1 µM; param system = adrenergic α1A receptor (Homo sapiens); param query = O=S(=O)(NCCCCN1CCN(c2cccc3[nH]ccc23)CC1)c1ccccc1 [Compound 27] ; response: value
1
